- Tested on: MDA-MB-435
- ASSAY_EXPLANATION: NCI tumour cell line growth inhibition, 48 h
OBSERVABLE: TGI

- C=COC(=O)N[C@H]1CCc2cc(OC)c(OC)c(OC)c2-c2ccc(SC)c(=O)cc21: < 0.01 µM
- CCOC(=O)NNC(=O)NCCCCNC(=O)NNC(=O)OCC: > 100 µM
- O=C(CNS(=O)(=O)Cc1ccccc1)NNc1ccccc1: > 100 µM
- COc1ccc(-c2nnc(N3CCN(C(=O)CN4CCN(c5ccccc5)CC4)CC3)nc2-c2ccc(OC)cc2)cc1: > 100 µM
- NCC(=O)Nc1ccc(S(=O)(=O)O)c2cc(S(=O)(=O)O)cc(S(=O)(=O)O)c12: > 100 µM
- COc1ccc(Cn2c(N)c(S(=O)(=O)c3ccc(Cl)cc3)c3nc(C#N)c(C#N)nc32)cc1: > 50 µM

Just for reference, PubChem BioAssay (NCI) is where these values come from.
